- measurement_notes: ANC transmembrane transport across Caco-2 cell monolayer (Transwell, HPLC)
- Assay type: in vitro ADME
- applied_conditions: human, Caco-2; ANC 0.20 ×10^−3 mg/mL, 4 h
readout_type: Papp B→A at 4 h, 0.2 ×10^−3 mg/mL
Value and unit, in that order.

Recorded Papp B→A at 4 h, 0.2 ×10^−3 mg/mL for OC[C@H]1O[C@@H](Oc2cc3c(O)cc(O)cc3[o+]c2-c2ccc(O)c(O)c2)[C@H](O)[C@@H](O)[C@@H]1O [ANC, Cyanidin-3-glucoside] , please? 1.48 ×10⁻⁶ cm/s

###

- measurement_notes: ANC transmembrane transport across Caco-2 cell monolayer (Transwell, HPLC)
- Assay type: in vitro ADME
- applied_conditions: human, Caco-2; ANC 0.15 ×10^−3 mg/mL, 4 h; read-out: Papp (B→A)/ Papp (A→B)
readout_type: efflux ratio at 4 h, 0.15 ×10^−3 mg/mL
Number only, no unit.

Requested field: efflux ratio at 4 h, 0.15 ×10^−3 mg/mL. Item: OC[C@H]1O[C@@H](Oc2cc3c(O)cc(O)cc3[o+]c2-c2ccc(O)c(O)c2)[C@H](O)[C@@H](O)[C@@H]1O [ANC, Cyanidin-3-glucoside] 1.29
